- experiment: chemical genetic growth profiling, strain panel (AID 1159580);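 also: tested at 20 µM; growth read once vehicle control cultures reached saturation at 30 °C; 1 = growth at the plate median or of vehicle wells; lower values mean less growth of the strain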
- experimental setup: S. cerevisiae deletion strains, growth OD, locus YHR013C, strain ard1, hits give low values
In all, about 5,500 compounds went through this assay and about 2,000 (36%) were called active. Inconclusive results (about 18%) are left out. Some of the results follow.
Measured normalized growth, listed per entry for reference.
Number only, no unit.

Consider the reported normalized growth for these compounds:
1) COc1cc(-c2coc3cc(O[C@@H]4O[C@H](CO)[C@@H](O)[C@H](O)[C@H]4O)c(OC)c(O)c3c2=O)cc(O)c1OC
0.979
2) O=C(O)[C@H](O)[C@@](O)(Cc1ccc(O)cc1)C(=O)O
1.02
3) COc1cc2c(cc1O)CCNC2C (centres undefined)
0.99

Task: For the compound shown here, `CC1=NN(c2ccccc2)C(=O)C1` , give the reported normalized growth.
Result: 0.881

Task: Ok, now `NC(N)=NC(N)=Nc1ccccc1`
Result: 0.952

Task: Ok, now `COc1ccc(C(=O)c2ccc(O)cc2)c(O)c1O`
Result: 0.916

###

- experiment: chemical genetic growth profiling, strain panel (AID 1159580);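 also: tested at 20 µM; growth read once vehicle control cultures reached saturation at 30 °C; 1 = growth at the plate median or of vehicle wells; lower values mean less growth of the strain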
- experimental setup: S. cerevisiae deletion strains, growth OD, locus YJL115W, strain asf1, hits give low values
Among all 5,500 compounds or so, about 2,000 (36%) were called active. Another 18% or so got no clear call; they are omitted. Some of the results follow. *1 amine or outer side, *2 acyl side, *3 side chain or, on linkers, in order; H or OH if unused. Where a SMILES comes first, the peptide text is derived from it. Bridges are numbered along the chain shown (N, C = ends). [ ]: non-standard residue; d: D form. The star is where a group is joined. ξ: configuration not given here. ΔAla(E,3-NHCONH2) = NC(=O)N/C=C(/N)C(=O)O; X2 = NC1=NCCC(C(N[*:1])C(=O)[*:2])N1; ξβ3hOrn = NCCCC(N)CC(=O)*; Dap = NC[CH](N)C(=O)O
Measured normalized growth, listed per entry for reference.
Number only, no unit.

Consider the reported normalized growth for these molecules:
1. NCCCC(N)CC(=O)NCC1NC(=O)C(CO)NC(=O)C(N)CNC(=O)C(C2CCN=C(N)N2)NC(=O)/C(=C\NC(N)=O)NC1=O (stereo not drawn) (H-[Dap]S[Dap](ξβ3hOrn)[ΔAla(E,3-NHCONH2)][X2]; lactam 1-C; configuration not given here)
1.02
2. COc1cc(O)cc(OC)c1OC
0.992
3. c1ccc([C@H]2CN3CCSC3=N2)cc1
0.997

Task: For the molecule shown here, `COc1cc(/C=C/C(=O)N2CCC=CC2=O)cc(OC)c1OC` , give the reported normalized growth.
Result: 1.03

Task: Ok, now `COc1cc(-c2coc3cc(O[C@@H]4O[C@H](CO)[C@@H](O)[C@H](O)[C@H]4O)c(OC)c(O)c3c2=O)cc(O)c1OC`
Result: 0.993

Task: Ok, now `CCN(CC)CCNC(=O)c1cc(Cl)c(N)cc1OC`
Result: 0.953

Task: Ok, now `CN1CCN(CC(=O)N2c3ccccc3C(=O)Nc3cccnc32)CC1`
Result: 1.01

Task: Ok, now `O=C(CCc1ccc(O)cc1)c1c(O)cc(O)cc1O[C@@H]1O[C@H](CO)[C@@H](O)[C@H](O)[C@H]1O`
Result: 1.01

Task: Ok, now `NC(N)=NC(N)=Nc1ccccc1`
Result: 1
